Reported values of IC50 for individual entries
- Tested on: DU145
- TEST METHOD NOTES: Proliferation assay, DU145
- Type: cell-based, human
- TEST CONTEXT: DU145 cells, 4 days, crystal violet
// note: answer is a bare numeric in µM

Input line: Return IC50 for the following compound: CCS(=N)(=O)c1ccc(Nc2ncc(Br)c(N[C@H](C)C(C)(C)O)n2)cc1 (mixture of isomers)
Output line: 0.3

* * *

- System: H460
- TEST METHOD NOTES: Proliferation assay, H460
- Format: cell-based, human
- TEST CONTEXT: H460 cells, 4 days, crystal violet
PARAMETER MEASURED: pIC50
// pIC50 is dimensionless: -log10 of concentration (M)

Guide cases for pIC50, answers given:
Input line: Recall and state the measured pIC50 for CCS(=N)(=O)c1ccc(Nc2ncc(Br)c(N[C@H](C)C(C)(C)O)n2)cc1 (mixture of isomers) [Example 1.54] .
Output line: 6.92

Input line: State, in one line, measured pIC50 of CCS(=N)(=O)c1ccc(Nc2ncc(Br)c(N[C@H](C)C(C)(C)O)n2)cc1 (mixture of isomers) [Example 1.55]
Output line: 6.52

Input line: Read off the recorded pIC50 for Cc1cc(Nc2ncc(Br)c(N[C@H](C)C(C)(C)O)n2)ccc1S(C)(=N)=O (mixture of isomers) [Example 1.58]
Output line: 7.52

Input line: Quote pIC50 reported for Cc1cc(Nc2ncc(Br)c(N[C@H](C)C(C)(C)O)n2)ccc1S(C)(=N)=O (mixture of isomers) [Example 1.57] please.
Output line: 6.92

Pending molecule:
Input line: Specify reported pIC50 for the molecule shown: CCS(=N)(=O)c1ccc(Nc2ncc(Br)c(N[C@H](COC)[C@@H](C)O)n2)cc1 (mixture of isomers)
Output line: 6.40

* * *

- Tested on: MCF7
- TEST METHOD NOTES: Proliferation assay, MCF7
- Format: cell-based, human
- TEST CONTEXT: Homo sapiens, MCF7, 96 h, MCF7 cells, 4 days, crystal violet
pIC50: −log10 of the molar value.
Use 1.0 when the recorded pIC50 is no lower than 7; use 0.0 when it is lower.

These solved cases illustrate the format of a correct answer.
Input line: Record C[C@@H](Nc1nc(Nc2ccc(S(=N)(=O)CCO)cc2)ncc1Br)C(C)(C)O (single isomer, unassigned) ; criterion: pIC50 no lower than 7. Met?
Output line: 0.0

Input line: Record COC[C@@H](Nc1nc(Nc2ccc(S(C)(=N)=O)cc2)ncc1Br)[C@@H](C)O (single isomer, unassigned) [Example 1.47] ; criterion: pIC50 no lower than 7. Met?
Output line: 0.0

Input line: I'd appreciate it if you could say whether CCS(=N)(=O)c1ccc(Nc2ncc(Br)c(N[C@H](C)[C@@H](C)O)n2)cc1 (single isomer, unassigned) [Example 1.53] has pIC50 at least equal to 7.
Output line: 0.0

Proceed to the following item.
Input line: Given the entry C[C@@H](O)[C@@H](C)Nc1nc(Nc2ccc(S(=N)(=O)CCO)cc2)ncc1Br (mixture of isomers) [Example 1.18] , answer whether its pIC50 meets or surpasses 7.
Output line: 1.0

* * *

IC50 for assorted compounds
- System: H460
- TEST METHOD NOTES: Proliferation assay, H460
- Type: cell-based, human
- TEST CONTEXT: Homo sapiens, NCI-H460, 96 h, H460 cells, 4 days, crystal violet

Use the examples below as a reference point.
Input line: In one line, give reported IC50 of the entry COC[C@@H](Nc1nc(Nc2ccc(S(C)(=N)=O)cc2)ncc1Br)[C@@H](C)O (single isomer, unassigned) [Example 1.47] .
Output line: 600 nM

Input line: Give the value of IC50 reported for the following: C[C@@H](Nc1nc(Nc2ccc(S(C)(=N)=O)cc2)ncc1Br)C(C)(C)O (single isomer, unassigned) [Example 1.42]
Output line: < 100 nM

***
Input line: Note down IC50 recorded for Cc1cc(Nc2ncc(Br)c(N[C@H](C)C(C)(C)O)n2)ccc1S(C)(=N)=O (single isomer, unassigned) [Example 1.59]
Output line: < 100 nM
